- Test system: PC-9
- assay: Antiproliferative activity against gefitinib resistant human PC9 cells expressing EGFR del E746_A750/T790M mutant after 72 hrs by MTS assay
- Assay type: functional, cell-based
- study_conditions: PC-9, 72 h
measure_name: IC50 (µM)

> print(dat)
                                   compound  test.system  endpoint.result
1  C=CC(=O)Nc1cccc(Oc2nc(Nc3ccc(N4CCN(C)CC4)cc3OC)ncc2Cl)c1         PC-9            0.014

---

- Organism: Homo sapiens
- assay: Selectivity ratio of Kd for wild type partial length human EGFR to Kd for partial length human EGFR L858R/T790M double mutant
Kindly return Criterion met if reported Selectivity ratio is no lower than 100; return Criterion not met if it is lower.

> print(dat)
                                   compound        label.class
1  C=CC(=O)Nc1cccc(-n2c3nc(Nc4ccc(N5CCN(C)CC5)cc4OCC)ncc3c(=O)n3ccnc23)c1      Criterion met
2  C=CC(=O)Nc1cccc(-n2c3nc(Nc4ccc(N5CCN(NC)CC5)cc4OC)ncc3c(=O)n3ccnc23)c1      Criterion met
3  C=CC(=O)Nc1cccc(-n2c3nc(Nc4ccc(N5CCOCC5)cc4OC)ncc3c(=O)n3ccnc23)c1      Criterion met
4  C=CC(=O)Nc1cccc(-n2c3nc(Nc4ccc(N5CCN(C)CC5)cc4OC)ncc3c(=O)n3ccnc23)c1  Criterion not met
5  C=CC(=O)Nc1cccc(N2C3=NCCCCN3C(=O)c3cnc(Nc4ccc(N5CCN(C)CC5)cc4OC)nc32)c1  Criterion not met

---

- System: A-431
- assay: Antiproliferative activity against human A431 cells expressing wild type EGFR by MTS assay
- Type: cell-based
pIC50: −log10 of the molar value.
Catalogue of pIC50 readings, one per entry.
measure_name: pIC50

> print(dat)
                                   compound  measure.name  relation  endpoint.result
1  C=CC(=O)Nc1cccc(-n2c3nc(Nc4ccc(N5CCN(C)CC5)cc4OC)ncc3c(=O)n3ccnc23)c1         pIC50         =             5.53
2  C=CC(=O)Nc1cccc(-n2c3nc(Nc4ccc(N5CCN(NC)CC5)cc4OC)ncc3c(=O)n3ccnc23)c1         pIC50         =             4.84
3  C=CC(=O)Nc1cccc(-n2c3nc(Nc4ccc(N5CCOCC5)cc4OC)ncc3c(=O)n3ccnc23)c1         pIC50         <             4.52
4  C=CC(=O)Nc1cccc(N2C3=NCCCCN3C(=O)c3cnc(Nc4ccc(N5CCN(C)CC5)cc4OC)nc32)c1         pIC50         =             5.81
5  C=CC(=O)Nc1cccc(Oc2nc(Nc3ccc(N4CCN(C)CC4)cc3OC)ncc2Cl)c1         pIC50         =             5.98
6  C=CC(=O)Nc1cccc(-n2c3nc(Nc4ccc(N5CCN(C)CC5)cc4OCC)ncc3c(=O)n3ccnc23)c1         pIC50         =             5.28
7  C=CC(=O)Nc1cccc(-n2c3nc(Nc4ccc(N5CCN(C)CC5)cc4OC)ncc3c(=O)n3c4ccccc4nc23)c1         pIC50         =             5.45
